- system-tested: Ubiquitin-activating enzyme e1, putative (Leishmania donovani (strain BPK282A1)) (UniProt E9BSI1)
- Sequence (E9BSI1 as listed by the source): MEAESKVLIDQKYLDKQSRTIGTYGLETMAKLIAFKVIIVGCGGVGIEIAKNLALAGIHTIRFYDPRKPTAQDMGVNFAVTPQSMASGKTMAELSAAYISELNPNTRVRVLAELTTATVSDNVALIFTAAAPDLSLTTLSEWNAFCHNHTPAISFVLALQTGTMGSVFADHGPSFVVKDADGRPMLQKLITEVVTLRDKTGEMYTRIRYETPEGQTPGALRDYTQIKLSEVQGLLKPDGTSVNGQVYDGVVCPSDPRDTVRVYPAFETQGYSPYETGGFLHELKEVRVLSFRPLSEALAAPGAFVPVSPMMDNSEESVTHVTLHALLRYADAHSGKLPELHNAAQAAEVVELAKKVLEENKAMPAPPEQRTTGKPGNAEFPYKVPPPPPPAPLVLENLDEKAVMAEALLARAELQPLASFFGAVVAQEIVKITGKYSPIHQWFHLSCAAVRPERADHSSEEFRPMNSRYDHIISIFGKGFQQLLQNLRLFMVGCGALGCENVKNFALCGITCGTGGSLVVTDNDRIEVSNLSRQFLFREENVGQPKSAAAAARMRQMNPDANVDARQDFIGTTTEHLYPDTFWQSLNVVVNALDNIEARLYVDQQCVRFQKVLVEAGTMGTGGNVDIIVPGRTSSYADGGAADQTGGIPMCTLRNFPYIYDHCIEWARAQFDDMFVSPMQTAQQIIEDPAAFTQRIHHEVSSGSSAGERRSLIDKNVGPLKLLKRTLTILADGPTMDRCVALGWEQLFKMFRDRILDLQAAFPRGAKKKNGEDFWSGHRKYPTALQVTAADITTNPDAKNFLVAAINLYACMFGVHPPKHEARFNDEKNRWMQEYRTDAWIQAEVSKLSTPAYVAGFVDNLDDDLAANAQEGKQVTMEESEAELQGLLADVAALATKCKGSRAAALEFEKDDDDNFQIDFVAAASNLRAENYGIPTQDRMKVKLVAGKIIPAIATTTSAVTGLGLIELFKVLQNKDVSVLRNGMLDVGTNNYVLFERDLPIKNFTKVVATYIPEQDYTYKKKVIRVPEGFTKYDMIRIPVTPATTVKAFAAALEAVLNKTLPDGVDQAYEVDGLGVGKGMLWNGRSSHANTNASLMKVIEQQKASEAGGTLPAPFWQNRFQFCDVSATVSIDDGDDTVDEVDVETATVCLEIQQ
- assay-procedure: Leishmania donovani Ubiquitin Activating Enzyme (LdE1)
- Format: functional
- Parameters: scale not given: direction of the effect not stated beside the values
- run-parameters: 30 µM
Entries with a potency or affinity are not part of this list.
readout-kind: Percent Effect (%)
Could you give me the number in %? Just the number is fine.

Using the record for Cc1nc(C)n(C2CCCN(C(=O)c3csc(C(C)C)n3)C2)n1 (configuration not stated) , report its Percent Effect.
29.7

Likewise for NC(=O)c1cc(C2CCCN(C(=O)CCc3ccsc3)C2)n[nH]1 (configuration not stated) ?
5.2

Input O=C(c1cncc(N2CCC(O)(CO)CC2)n1)N1CCCC1
5.33

Try this molecule next: Cc1ncsc1CN1C[C@@H](OCC2CC2)[C@H]2OCCC[C@H]21
8.11

Moving on to Cc1cc(F)ccc1OC1(C(=O)O)CCN(Cc2cccnc2N)CC1
5.33

Same question, Cc1nnc(C(C)N2CCN(Cc3ccc(C#N)cc3)CC2)o1 (configuration not stated) this time
8.11

Next record, please: CCc1nnc(CNCC2CCCN2c2cccnn2)o1 (configuration not stated)
0

Do the same for CC(C)n1ccnc1C1CCCN(c2ccnc3ccccc23)C1 (configuration not stated) please
2.67

Could you do the same for CN(Cc1nnc2n1CCC2)C(=O)Cc1ccc2c(c1)OCCO2 , please?
13.5

Next molecule: Cc1nc(C)n(C2CCCN(C(=O)c3ccc(NC4CC4)nc3)C2)n1 (configuration not stated)
-5.41

Then Cc1cc(C)nc(NC(=O)C(C)Oc2ccc3c(c2)OCO3)n1 (configuration not stated) ?
5.2

Same lookup for Cc1cccc(CN2C[C@@H]3CN(C(=O)c4ccsc4)C[C@@H]3C2=O)c1 , please.
7.79

Proceed to COCCN1CCC2(CC1)CN(C(=O)N(C)C)c1ccc(C)cc12
5.41

Would you kindly repeat that for Cc1cnn(CCC(=O)N2CCCN(c3ncccc3C#N)CC2)c1 ?
19

Check Cc1nc(C2CCN(C(=O)c3cccnc3)CC2)c2sccn12 too.
1.35

Now consider COc1ccnc(N2CCN(C(=O)c3cnn(C)c3C3CC3)CC2)n1 .
10.8

Next entry: CS(=O)(=O)NC1CCN(C(=O)NCCNc2ccccn2)CC1
10.8

Entry Cc1cc(C)c(CNC(=O)NCC2CCCN2C)c(=O)[nH]1 (configuration not stated) please
2.63

// repeat for COc1ccc(OCc2cc(C(=O)N3CCN[C@H](C)C3)n[nH]2)c(Cl)c1 and report
5.41

// same read-out, input: O=C(NCCNc1ncccn1)N1CCSCC1
13.5

Okay, and CCCc1n[nH]c(C2CN(C(=O)c3ccco3)CCO2)n1 (configuration not stated) ?
0

And the next one, COCC(=O)N1Cc2cn(C)nc2C(COc2cccnc2)C1 (configuration not stated) ?
15.6

Same question, CCOc1nnc(CN2CCC(N(C)Cc3noc(C)n3)C2)s1 (configuration not stated) this time
13.2

Next: CCc1cc(NCCNc2cccnc2)n2nccc2n1
2.7

And what about the molecule CCn1ccnc1-c1nc2cc(S(=O)(=O)N3CCCC3)ccc2n1C ?
0

Query CCc1nc2n(n1)CC(NCc1nc(C)ccc1O)CC2 (configuration not stated) next
7.89

Similarly, CC(=O)N1CCCC(c2cnc(-c3c(C)nn(C)c3C)cn2)C1 (configuration not stated) ?
0

# iterate: Cc1occc1C(=O)N1CCc2c(COCC3CC3)cncc2C1
18.9

Please give the result for O=C(NC1CCN(c2snc3ccccc23)CC1)C1CCC1 too.
16.5

CCOCC(=O)N1CCC(Oc2ccc(C(F)(F)F)cn2)CC1 ?
5.2

Cool, now CC(=O)N(Cc1noc(C)n1)C1CCN(Cc2cc(C)on2)C1 (configuration not stated)
18.2

Field entry: Cc1cccc(CN2CCc3ncnc(N4CCOCC4)c3CC2)n1
-5.48

Also, CCC(C)(C)NC(=O)CN(C)C(c1cccc(F)c1)c1ccccn1 (configuration not stated) please.
2.6

For CC(C)c1nccn1C1CCCN(C(=O)c2ccnc(N(C)C)c2)C1 (configuration not stated) then?
-7.79

Repeat for the following molecule: Cc1ccc(C(C)NC(=O)Cc2c(C)nc3c(c2C)c(=O)[nH]n3C)o1 (configuration not stated)
7.79

Try this molecule next: O=C(c1ccccn1)N1C[C@@H]2CC[C@H](C1)N(C(=O)CCc1ccsc1)C2
7.79

Query Cc1[nH]ccc1C(=O)N1CCC(c2nnc(Cn3ccnc3)n2C)CC1 next
8.22

// repeat for Cc1ccc(CN2CCc3ncnc(-c4cccnc4)c3CC2)o1 and report
-2.67

Next up: Cc1cc(F)cc(S(=O)(=O)NCCCN2CCC(O)CC2)c1
15.6

Can you check Cc1ccccc1CS(=O)(=O)CC(=O)NC1CCCCNC1=O (configuration not stated) next?
18.2

Another molecule: O=C(NC[C@@H]1CCCN1)c1cc(COc2cccc(C(F)(F)F)c2)[nH]n1
9.72

CCCn1c(C)c(CC(=O)NC)c2c1CC(C)(C)CC2=O , same question.
2.6

Repeat for the following molecule: Cc1nc(CN2CCCCC2Cn2cncn2)nc2ccccc12 (configuration not stated)
26

Lookup Cc1ccc(F)c(C(=O)N2CCN(S(C)(=O)=O)[C@@H](C)C2)c1
2.74

// repeat for O=S(=O)(NCC1CCOc2ccccc2C1)N1CCOCC1 (configuration not stated) and report
15.6

For CC(C)(NCC(=O)NCC(F)(F)F)c1ccc2c(c1)OCCO2 then?
13.5

For Cc1cc(C)n(CC(=O)N2CCC(NS(C)(=O)=O)CC2)n1 then?
15.8
